Test system: CEM cells HIV-1 protection, formazan growth assay
assaySummary: NCI AIDS Antiviral Assay
conditionSet: measured here: growth of uninfected CEM cells
pIC50: −log10 of the molar value.
Reported pIC50 values follow for various molecules
measurementKind: pIC50

1. O=C(CN1CCCCC1)c1ccc2c(c1)Cc1cc(C(=O)CN3CCCCC3)ccc1O2 :: 4.48
2. Oc1ccc2ccccc2c1CN1CCOCC1 :: 3.73
3. N#C/C(=C\n1ccc(=O)[nH]c1=S)C(=O)c1ccc2ccccc2c1 :: 3.91
4. Clc1ccc(Nc2nnc(CNc3ccc(-c4nnc(Nc5ccc(Cl)cc5)o4)cc3)o2)cc1 :: 5.91
5. COc1ccc(/C=C2\Oc3cc(OC(C)=O)ccc3C2=O)cc1 :: 4.43
